Target: hCA IX (Homo sapiens, UniProt Q16790)
Test: stopped flow CO2 hydrase assay, hCA IX inhibition
Reported property: pKi
# pKi is unitless: minus log10 of the molar concentration; print number only

Previously resolved entries follow.
Compound	pKi
NS(=O)(=O)c1ccc(C(=O)N2CCC(C(=O)NNC(=O)Nc3ccc(F)cc3)CC2)cc1 [Compound 5h]	8.68
NS(=O)(=O)c1ccc(C(=O)N2CCC(C(=O)NNC(=S)NC3CCCCC3)CC2)cc1 [Compound 6y]	8.77
COc1ccccc1NC(=S)NNC(=O)C1CCN(C(=O)c2ccc(S(N)(=O)=O)cc2)CC1 [Compound 6j]	8.38
NS(=O)(=O)c1ccc(C(=O)N2CCC(C(=O)NNC(=S)Nc3ccc(F)cc3)CC2)cc1 [Compound 6p]	7.70
Cc1ccccc1NC(=S)NNC(=O)C1CCN(C(=O)c2ccc(S(N)(=O)=O)cc2)CC1 [Compound 6r]	8.05

Incoming: Quick check: pKi of NS(=O)(=O)c1ccc(C(=O)N2CCC(C(=O)NNC(=S)Nc3ccccc3Cl)CC2)cc1 [Compound 6d] ?
Outgoing: 8.09

Incoming: pKi lookup needed for Cc1ccccc1NC(=O)NNC(=O)C1CCN(C(=O)c2ccc(S(N)(=O)=O)cc2)CC1 [Compound 5j] , thanks.
Outgoing: 7.46

Incoming: Request the reported pKi associated with COc1ccc(NC(=O)NNC(=O)C2CCN(C(=O)c3ccc(S(N)(=O)=O)cc3)CC2)c(OC)c1 [Compound 5r]
Outgoing: 7.63

Incoming: What does the data say about its pKi? Entry: Cc1cccc(C)c1NC(=S)NNC(=O)C1CCN(C(=O)c2ccc(S(N)(=O)=O)cc2)CC1 [Compound 6u]
Outgoing: 8.33

Incoming: Suppose we examine the compound Cc1ccc(NC(=O)NNC(=O)C2CCN(C(=O)c3ccc(S(N)(=O)=O)cc3)CC2)cc1 [Compound 5l] ; what pKi value has been reported?
Outgoing: 8.09

Incoming: Requested field: pKi. Item: NS(=O)(=O)c1ccc(C(=O)N2CCC(C(=O)NNC(=O)Nc3ccccc3F)CC2)cc1 [Compound 5f]
Outgoing: 7.65

Incoming: Which pKi value is on record for NS(=O)(=O)c1ccc(C(=O)N2CCC(C(=O)NNC(=O)Nc3ccccc3)CC2)cc1 [Compound 5a] ?
Outgoing: 7.78

Incoming: // pKi lookup, key: COc1ccc(NC(=O)NNC(=O)C2CCN(C(=O)c3ccc(S(N)(=O)=O)cc3)CC2)cc1 [Compound 5q]
Outgoing: 8.05

Incoming: Could you share which pKi value was measured for NS(=O)(=O)c1ccc(C(=O)N2CCC(C(=O)NNC(=S)Nc3c(Cl)cccc3Cl)CC2)cc1 [Compound 6i] ?
Outgoing: 7.62

Incoming: Would you kindly share the measured pKi for NS(=O)(=O)c1ccc(C(=O)N2CCC(C(=O)NNC(=S)Nc3ccccc3F)CC2)cc1 [Compound 6n] ?
Outgoing: 8.16

Incoming: Using the record for NS(=O)(=O)c1ccc(C(=O)N2CCC(C(=O)NNC(=O)Nc3c(Cl)cccc3Cl)CC2)cc1 [Compound 5e] , report its pKi.
Outgoing: 7.54

* * *

Target: hCA I (Homo sapiens, UniProt P00915)
Sequence (P00915 whole entry): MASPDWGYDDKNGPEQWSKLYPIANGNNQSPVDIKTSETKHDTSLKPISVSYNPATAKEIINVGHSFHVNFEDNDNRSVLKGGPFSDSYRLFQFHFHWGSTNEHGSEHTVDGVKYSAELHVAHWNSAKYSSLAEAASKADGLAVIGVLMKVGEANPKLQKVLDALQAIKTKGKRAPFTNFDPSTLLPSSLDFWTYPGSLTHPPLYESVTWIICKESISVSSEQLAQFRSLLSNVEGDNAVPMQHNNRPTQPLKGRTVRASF
Assay: stopped flow CO2 hydrase assay, hCA I inhibition
just bin them by Ki: low value (below 200 nM), medium value (200 nM to below 300 nM), high value (300 nM or more)

Solved entries:
Compound	Group
NS(=O)(=O)c1ccc(C(=O)N2CCC(C(=O)NNC(=O)Nc3c(F)cccc3F)CC2)cc1 [Compound 5i]	low value
NS(=O)(=O)c1ccc(C(=O)N2CCC(C(=O)NNC(=O)Nc3c(Cl)cccc3Cl)CC2)cc1 [Compound 5e]	medium value
NS(=O)(=O)c1ccc(C(=O)N2CCC(C(=O)NNC(=O)Nc3ccc(Cl)cc3)CC2)cc1 [Compound 5d]	high value

Incoming: Would you mind sorting COc1ccc(NC(=O)NNC(=O)C2CCN(C(=O)c3ccc(S(N)(=O)=O)cc3)CC2)cc1 [Compound 5q] into the appropriate category?
Outgoing: high value

Incoming: State the class of the compound shown: NS(=O)(=O)c1ccc(C(=O)N2CCC(C(=O)NNC(=S)Nc3cccc(Cl)c3)CC2)cc1 [Compound 6e]
Outgoing: high value

Incoming: Band for the recorded Ki of NS(=O)(=O)c1ccc(C(=O)N2CCC(C(=O)NNC(=O)Nc3ccc(F)cc3)CC2)cc1 [Compound 5h] ?
Outgoing: low value

Incoming: Hey, which category is NS(=O)(=O)c1ccc(C(=O)N2CCC(C(=O)NNC(=S)Nc3ccccc3F)CC2)cc1 [Compound 6n] in, do you know?
Outgoing: high value

Incoming: Bin this entry: COc1ccc(NC(=S)NNC(=O)C2CCN(C(=O)c3ccc(S(N)(=O)=O)cc3)CC2)cc1 [Compound 6l]
Outgoing: medium value

Incoming: Which class does Cc1cc(C)cc(NC(=O)NNC(=O)C2CCN(C(=O)c3ccc(S(N)(=O)=O)cc3)CC2)c1 [Compound 5n] fall in?
Outgoing: low value

Incoming: Field: class (Ki) — entry: NS(=O)(=O)c1ccc(C(=O)N2CCC(C(=O)NNC(=O)Nc3ccccc3F)CC2)cc1 [Compound 5f]
Outgoing: high value

Incoming: Please let me know in which category the item NS(=O)(=O)c1ccc(C(=O)N2CCC(C(=O)NNC(=S)Nc3ccc(Cl)cc3Cl)CC2)cc1 [Compound 6h] belongs.
Outgoing: medium value

Incoming: Which class holds NS(=O)(=O)c1ccc(C(=O)N2CCC(C(=O)NNC(=S)Nc3c(F)cccc3F)CC2)cc1 [Compound 6q] ?
Outgoing: low value

Incoming: Hello team, could you let me know which band the following compound falls into: Cc1ccccc1NC(=O)NNC(=O)C1CCN(C(=O)c2ccc(S(N)(=O)=O)cc2)CC1 [Compound 5j]
Outgoing: low value

* * *

Target: hCA II (Homo sapiens, UniProt P00918)
Assay: stopped flow CO2 hydrase assay, hCA II inhibition
Reported property: pKi
Schema: pKi number; meaning minus log10 of the concentration expressed in molar units.

Reference set, count: 6
NS(=O)(=O)c1ccc(C(=O)N2CCC(C(=O)NNC(=S)Nc3ccccc3F)CC2)cc1 7.82
NS(=O)(=O)c1ccc(C(=O)N2CCC(C(=O)NNC(=O)Nc3ccc(F)cc3)CC2)cc1 7.92
Cc1cc(C)cc(NC(=O)NNC(=O)C2CCN(C(=O)c3ccc(S(N)(=O)=O)cc3)CC2)c1 7.32
NS(=O)(=O)c1ccc(C(=O)N2CCC(C(=O)NNC(=O)Nc3cccc(Cl)c3)CC2)cc1 8.29
COc1ccc(NC(=S)NNC(=O)C2CCN(C(=O)c3ccc(S(N)(=O)=O)cc3)CC2)cc1 7.82
NS(=O)(=O)c1ccc(C(=O)N2CCC(C(=O)NNC(=S)NCc3ccccc3)CC2)cc1 7.15

Now look at this one.
Incoming: Any idea what pKi was measured for `NS(=O)(=O)c1ccc(C(=O)N2CCC(C(=O)NNC(=S)Nc3ccc(F)cc3)CC2)cc1` ?
Outgoing: 7.64

* * *

As shown below, each of these molecules has a reported melting point value.

Take a look at these entries with their results.
Cc1cc(C)cc(NC(=O)NNC(=O)C2CCN(C(=O)c3ccc(S(N)(=O)=O)cc3)CC2)c1 216 to 217 °C
NS(=O)(=O)c1ccc(C(=O)N2CCC(C(=O)NNC(=S)Nc3ccc(Cl)cc3)CC2)cc1 222 to 223 °C
NS(=O)(=O)c1ccc(C(=O)N2CCC(C(=O)NNC(=O)Nc3cccc(F)c3)CC2)cc1 214 to 215 °C
NS(=O)(=O)c1ccc(C(=O)N2CCC(C(=O)NNC(=S)Nc3ccc([N+](=O)[O-])cc3)CC2)cc1 236 to 237 °C
COc1cccc(NC(=S)NNC(=O)C2CCN(C(=O)c3ccc(S(N)(=O)=O)cc3)CC2)c1 214 to 215 °C
COc1ccccc1NC(=S)NNC(=O)C1CCN(C(=O)c2ccc(S(N)(=O)=O)cc2)CC1 214 to 215 °C
COc1ccc(NC(=O)NNC(=O)C2CCN(C(=O)c3ccc(S(N)(=O)=O)cc3)CC2)cc1 228 to 230 °C
NS(=O)(=O)c1ccc(C(=O)N2CCC(C(=O)NNC(=S)Nc3ccc(F)cc3)CC2)cc1 215 to 216 °C

Incoming: What value of melting point has been recorded for this entry: `NS(=O)(=O)c1ccc(C(=O)N2CCC(C(=O)NNC(=O)Nc3c(F)cccc3F)CC2)cc1`
Outgoing: 194 to 195 °C

Incoming: Bench note: what melting point did `COc1ccc(NC(=S)NNC(=O)C2CCN(C(=O)c3ccc(S(N)(=O)=O)cc3)CC2)cc1` show?
Outgoing: > 250 °C

Incoming: Return reported melting point; argument: `NS(=O)(=O)c1ccc(C(=O)N2CCC(C(=O)NNC(=S)NCc3ccccc3)CC2)cc1`
Outgoing: > 250 °C

Incoming: Param item = `COc1ccc(CNC(=S)NNC(=O)C2CCN(C(=O)c3ccc(S(N)(=O)=O)cc3)CC2)cc1` ; retrieve measured melting point.
Outgoing: 240 to 241 °C

Incoming: Recorded melting point of `Cc1cccc(NC(=O)NNC(=O)C2CCN(C(=O)c3ccc(S(N)(=O)=O)cc3)CC2)c1` , please.
Outgoing: 222 to 225 °C

Incoming: Please look up its melting point: `NS(=O)(=O)c1ccc(C(=O)N2CCC(C(=O)NNC(=S)Nc3ccc(Cl)cc3Cl)CC2)cc1`
Outgoing: 220 to 221 °C

Incoming: So what's the measured melting point for this one? `Cc1ccccc1NC(=O)NNC(=O)C1CCN(C(=O)c2ccc(S(N)(=O)=O)cc2)CC1`
Outgoing: 238 to 240 °C

Incoming: Form field: reported melting point of `NS(=O)(=O)c1ccc(C(=O)N2CCC(C(=O)NNC(=S)Nc3ccccc3Cl)CC2)cc1`
Outgoing: 209 to 210 °C

Incoming: What does the record list as melting point for `COc1cccc(NC(=O)NNC(=O)C2CCN(C(=O)c3ccc(S(N)(=O)=O)cc3)CC2)c1` ?
Outgoing: 218 to 220 °C

Incoming: I have this molecule here, `Cc1cccc(C)c1NC(=S)NNC(=O)C1CCN(C(=O)c2ccc(S(N)(=O)=O)cc2)CC1` , and I need its recorded melting point.
Outgoing: 233 to 234 °C

Incoming: Any idea what melting point was measured for `Cc1cccc(C)c1NC(=O)NNC(=O)C1CCN(C(=O)c2ccc(S(N)(=O)=O)cc2)CC1` ?
Outgoing: 212 to 213 °C

Incoming: Return reported melting point; argument: `NS(=O)(=O)c1ccc(C(=O)N2CCC(C(=O)NNC(=O)Nc3ccccc3Cl)CC2)cc1`
Outgoing: 214 to 215 °C

Incoming: # lookup: melting point of `NS(=O)(=O)c1ccc(C(=O)N2CCC(C(=O)NNC(=S)Nc3ccccc3F)CC2)cc1`
Outgoing: 219 to 220 °C

Incoming: Query (molecule): `NS(=O)(=O)c1ccc(C(=O)N2CCC(C(=O)NNC(=S)Nc3c(Cl)cccc3Cl)CC2)cc1` ; field requested: melting point
Outgoing: 179 to 180 °C

Incoming: State the recorded melting point for this entry: `Cc1ccccc1NC(=S)NNC(=O)C1CCN(C(=O)c2ccc(S(N)(=O)=O)cc2)CC1`
Outgoing: 209 to 210 °C

Incoming: Name the reported melting point value associated with the molecule `COc1ccccc1NC(=O)NNC(=O)C1CCN(C(=O)c2ccc(S(N)(=O)=O)cc2)CC1`
Outgoing: 219 to 220 °C
